Attribution: ChEMBL document CHEMBL1140235

- TEST_TARGET: Adrenergic receptor alpha-1 (Rattus norvegicus, UniProt P15823+P23944+P43140)
- Sequence (P15823 whole entry): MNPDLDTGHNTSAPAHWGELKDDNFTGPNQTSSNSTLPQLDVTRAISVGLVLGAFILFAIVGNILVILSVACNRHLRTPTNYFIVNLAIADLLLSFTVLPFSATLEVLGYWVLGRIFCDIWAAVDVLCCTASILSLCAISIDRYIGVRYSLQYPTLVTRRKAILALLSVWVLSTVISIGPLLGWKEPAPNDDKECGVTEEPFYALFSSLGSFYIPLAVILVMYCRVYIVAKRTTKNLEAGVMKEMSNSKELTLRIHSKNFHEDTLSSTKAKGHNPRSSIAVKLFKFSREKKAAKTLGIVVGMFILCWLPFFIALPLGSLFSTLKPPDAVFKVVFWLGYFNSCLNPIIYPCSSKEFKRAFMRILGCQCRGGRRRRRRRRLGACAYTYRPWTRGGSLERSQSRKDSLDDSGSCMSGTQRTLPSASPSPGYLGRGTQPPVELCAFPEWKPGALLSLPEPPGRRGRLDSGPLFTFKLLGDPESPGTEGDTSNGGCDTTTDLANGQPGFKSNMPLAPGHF
- Sequence (P23944 whole entry): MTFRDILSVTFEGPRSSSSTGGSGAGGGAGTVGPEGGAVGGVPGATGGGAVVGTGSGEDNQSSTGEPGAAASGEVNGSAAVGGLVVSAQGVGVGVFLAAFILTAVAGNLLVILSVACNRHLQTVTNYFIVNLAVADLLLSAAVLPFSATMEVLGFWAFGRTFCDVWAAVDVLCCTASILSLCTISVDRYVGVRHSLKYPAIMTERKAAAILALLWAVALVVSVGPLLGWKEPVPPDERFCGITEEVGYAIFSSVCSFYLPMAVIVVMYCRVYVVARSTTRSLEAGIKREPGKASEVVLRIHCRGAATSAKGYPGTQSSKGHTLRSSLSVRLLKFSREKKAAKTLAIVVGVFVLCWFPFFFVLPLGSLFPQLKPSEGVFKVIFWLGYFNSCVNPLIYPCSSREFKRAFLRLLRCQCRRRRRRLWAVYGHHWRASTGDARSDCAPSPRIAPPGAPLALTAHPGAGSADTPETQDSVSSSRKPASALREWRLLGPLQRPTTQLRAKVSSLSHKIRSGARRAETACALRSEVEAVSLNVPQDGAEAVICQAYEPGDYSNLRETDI
- Sequence (P43140 whole entry): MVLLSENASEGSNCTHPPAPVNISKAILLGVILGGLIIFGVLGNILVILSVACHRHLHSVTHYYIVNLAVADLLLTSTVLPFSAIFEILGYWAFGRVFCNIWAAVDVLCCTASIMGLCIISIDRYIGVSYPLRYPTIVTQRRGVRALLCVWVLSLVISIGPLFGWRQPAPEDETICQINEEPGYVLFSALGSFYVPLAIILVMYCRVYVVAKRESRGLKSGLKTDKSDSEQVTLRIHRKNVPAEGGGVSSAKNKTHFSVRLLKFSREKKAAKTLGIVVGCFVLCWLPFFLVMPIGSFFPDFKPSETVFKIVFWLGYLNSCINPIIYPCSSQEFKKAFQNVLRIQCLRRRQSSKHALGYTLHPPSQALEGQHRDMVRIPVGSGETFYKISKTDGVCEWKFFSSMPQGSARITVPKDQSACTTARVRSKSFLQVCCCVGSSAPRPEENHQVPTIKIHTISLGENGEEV
- EXPERIMENT_SUMMARY: Displacement of [3H]prazosin from adrenergic alpha1 receptor in rat cortical membrane
- Format: cell membranes
Entries and their Ki values follow.
MEASUREMENT_TYPE: Ki (µM)

INSERT INTO measurements (item_smiles, test_target, measurement_type, operator, data_value) VALUES
  ('COc1ccccc1[C@H]1CC[C@@H](N2CCN(c3ccccn3)CC2)CC1', 'Adrenergic receptor alpha-1 (Rattus norvegicus, UniProt P15823+P23944+P43140)', 'Ki', '=', 0.712),
  ('COc1cccc([C@H]2CC[C@@H](N3CCN(c4ccccc4)CC3)CC2)c1', 'Adrenergic receptor alpha-1 (Rattus norvegicus, UniProt P15823+P23944+P43140)', 'Ki', '=', 2.25),
  ('COc1ccc([C@H]2CC[C@@H](N3CCN(c4ccccn4)CC3)CC2)cc1', 'Adrenergic receptor alpha-1 (Rattus norvegicus, UniProt P15823+P23944+P43140)', 'Ki', '=', 0.786),
  ('COc1cccc([C@H]2CC[C@@H](N3CCN(c4cccc5ccccc45)CC3)CC2)c1', 'Adrenergic receptor alpha-1 (Rattus norvegicus, UniProt P15823+P23944+P43140)', 'Ki', '=', 5.54),
  ('COc1cccc([C@H]2CC[C@@H](N3CCN(c4ccccn4)CC3)CC2)c1', 'Adrenergic receptor alpha-1 (Rattus norvegicus, UniProt P15823+P23944+P43140)', 'Ki', '=', 0.783),
  ('COc1cccc([C@H]2CC[C@@H](NCCOc3ccccn3)CC2)c1', 'Adrenergic receptor alpha-1 (Rattus norvegicus, UniProt P15823+P23944+P43140)', 'Ki', '>', 0.85);
